Molecular target: PI3K alpha (Homo sapiens)
Construct: p85(iSH2) fusion partner (see partner chain) (N); His tag (C); Tn5 (Trichoplusia ni) or TiniPro insect cells
Sequence (P42336 with tags, fused parts or gaps limits assumed): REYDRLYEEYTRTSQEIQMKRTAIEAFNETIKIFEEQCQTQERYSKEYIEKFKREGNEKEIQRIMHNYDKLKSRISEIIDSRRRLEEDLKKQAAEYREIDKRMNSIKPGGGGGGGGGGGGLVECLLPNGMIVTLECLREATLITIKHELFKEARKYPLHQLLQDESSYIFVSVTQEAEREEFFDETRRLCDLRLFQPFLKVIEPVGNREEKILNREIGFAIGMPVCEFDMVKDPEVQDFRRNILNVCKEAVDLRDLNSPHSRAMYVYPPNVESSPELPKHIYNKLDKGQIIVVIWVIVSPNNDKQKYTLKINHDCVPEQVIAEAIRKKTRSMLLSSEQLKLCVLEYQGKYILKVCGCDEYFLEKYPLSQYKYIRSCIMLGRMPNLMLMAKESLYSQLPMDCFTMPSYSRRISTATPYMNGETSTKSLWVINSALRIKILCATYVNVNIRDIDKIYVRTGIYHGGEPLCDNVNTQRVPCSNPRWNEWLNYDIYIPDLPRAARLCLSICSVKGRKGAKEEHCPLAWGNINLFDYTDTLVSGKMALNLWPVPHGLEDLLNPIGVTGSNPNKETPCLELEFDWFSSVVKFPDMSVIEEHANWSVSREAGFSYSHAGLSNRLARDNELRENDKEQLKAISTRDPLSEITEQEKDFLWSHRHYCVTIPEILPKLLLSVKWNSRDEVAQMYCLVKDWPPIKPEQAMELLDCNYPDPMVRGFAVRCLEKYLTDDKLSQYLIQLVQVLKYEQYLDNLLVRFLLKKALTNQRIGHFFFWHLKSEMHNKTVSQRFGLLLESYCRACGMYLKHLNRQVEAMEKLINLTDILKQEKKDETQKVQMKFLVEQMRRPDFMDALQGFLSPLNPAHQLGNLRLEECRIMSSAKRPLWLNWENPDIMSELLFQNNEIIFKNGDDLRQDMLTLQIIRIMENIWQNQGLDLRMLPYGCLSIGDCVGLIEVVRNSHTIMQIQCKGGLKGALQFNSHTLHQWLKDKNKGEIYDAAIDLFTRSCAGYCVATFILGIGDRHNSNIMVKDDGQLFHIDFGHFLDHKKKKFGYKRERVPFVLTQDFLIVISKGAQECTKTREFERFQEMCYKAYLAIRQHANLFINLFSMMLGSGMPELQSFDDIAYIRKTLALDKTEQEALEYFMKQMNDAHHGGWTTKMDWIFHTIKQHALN
Assay: PI3K alpha kinase assay (Kinase-Glo luminescence)
VALUE TYPE: IC50 (nM)

1. CCOCc1cc(-c2ccc3ncc4c(c3c2)n(-c2c(C)nn(C)c2C)c(=O)n4C)cnc1N 28
2. CCN1C(=O)OCc2ncc(-c3ccc4ncc5c(c4c3)n(-c3cn(C)nc3C)c(=O)n5C)cc21 8
3. CNc1ncc(-c2ccc3ncc4c(c3c2)n(-c2cn(C)nc2C)c(=O)n4C)cc1Cl 14
4. COCc1ccc(-c2ccc3ncc4c(c3c2)n(-c2cn(C)nc2Cl)c(=O)n4C)cn1 5
5. CNc1ccc(-c2ccc3ncc4c(c3c2)n(-c2cn(C(C)C)nc2C)c(=S)n4C)cn1 18
6. CCNc1cc(-c2ccc3ncc4c(c3c2)n(-c2cn(CC)nc2C)c(=O)n4C)cnc1CO 14

(A) Cc1ncc(-c2ccc3ncc4c(c3c2)n(-c2cn(C)nc2C)c(=O)n4C)cc1OC(CF)CF
(B) CCc1ncc(-c2ccc3ncc4c(c3c2)n(-c2cn(C)nc2C)c(=O)n4C)cc1N
Returns: the label, A or B , whose recorded IC50 is the lower number. Indicate your choice by writing its label.
A

* * *

Target: PI3K alpha (Homo sapiens)
Construct: p85(iSH2) fusion partner (see partner chain) (N); His tag (C); Tn5 (Trichoplusia ni) or TiniPro insect cells
Test: PI3K alpha kinase assay (Kinase-Glo luminescence)
VALUE TYPE: IC50 (nM)

Past entries and their recorded results:
1. Cc1nn(C)cc1-n1c(=O)n(C)c2cnc3ccc(-c4cnccn4)cc3c21 148
2. COCc1cc(-c2ccc3ncc4c(c3c2)n(-c2cn(C)nc2Cl)c(=O)n4C)cnc1OC 4
3. COc1cncc(-c2ccc3ncc4c(c3c2)n(-c2cn(C)nc2C)c(=O)n4C)c1 8
4. CNc1cc(-c2ccc3ncc4c(c3c2)n(-c2cn(C)nc2C)c(=O)n4C)cnc1COC 34
5. Cc1nn(C)cc1-n1c(=O)n(C)c2cnc3ccc(-c4ccc(N5CC[C@@H](O)C5)nc4)cc3c21 53

(P) CCn1cc(-n2c(=O)n(C)c3cnc4ccc(-c5cnc(CO)c(NC)c5)cc4c32)c(C)n1
(Q) Cc1nn(C)cc1-n1c(=O)n(C)c2cnc3ccc(-c4ccc(N5CCN(C)CC5)nc4)cc3c21
Returns: the label, P or Q , whose recorded IC50 is the lower number. Indicate your choice by writing its label.
P

* * *

Test: Solubility at pH 6.8
Assay type: physicochemical
Settings: pH 6.8, aqueous buffer, thermodynamic from solid; read-out: solubility
VALUE TYPE: solubility (µg/mL)

Past entries and their recorded results:
MOLECULE	U	solubility
COc1ncc(-c2ccc3ncc4c(c3c2)n(-c2cn(C)nc2C)c(=O)n4C)cc1NC(C)=O [Example 64]	µg/mL	3
COc1ncc(-c2ccc3ncc4c(c3c2)n(-c2cn(C)nc2C)c(=O)n4C)c(OC)n1 [Example 234.2]	µg/mL	22
Cc1nn(C)cc1-n1c(=O)n(C)c2cnc3ccc(-c4ccc(C(N)=O)nc4)cc3c21 [Example 14]	µg/mL	53
CCN(C)c1ccc(-c2ccc3ncc4c(c3c2)n(-c2cn(C)nc2C)c(=O)n4C)cn1 [Example 98.1]	µg/mL	8
COCCOc1cc(-c2ccc3ncc4c(c3c2)n(-c2cn(C)nc2C)c(=O)n4C)cnc1CO [Example 244]	µg/mL	92

(I) Cc1nn(C)cc1-n1c(=O)n(C)c2cnc3ccc(-c4cncc(NC(C)C)c4)cc3c21 [Example 177.1]
(II) CNc1cc(-c2ccc3ncc4c(c3c2)n(-c2cn(C)nc2C)c(=O)n4C)cnc1C [Example 163]
(III) COc1ccc(-c2ccc3ncc4c(c3c2)n(-c2cc(C)nn2C)c(=O)n4C)cc1OC [Example 1.4]
Sort low-to-high on solubility, please. Write the labels out in the order the request specifies.
III, II, I
(III: 4 µg/mL, II: 24 µg/mL, I: 169 µg/mL)

* * *

Tested on: PKB Ser473 phosphorylation in Rat1-myr-HA-p110 alpha cells
Assay: Reverse protein array assay, PKB Ser473 phosphorylation in Rat1-myr-p110 alpha cells
Assay type: cell-based
Settings: 0.5 h, pAkt Ser473, 30 minutes compound incubation, read-out: p-PKB IC50
VALUE TYPE: IC50 (µM)

Past entries and their recorded results:
MOLECULE	OBSERVED
CCn1cc(-n2c(=O)n(C)c3cnc4ccc(-c5ccc(COC)nc5)cc4c32)c(C)n1 [Example 104]	0.071
Cc1nn(C)cc1-n1c(=O)n(C)c2cnc3ccc(-c4cccc(N(C)S(C)(=O)=O)c4)cc3c21 [Example 117]	0.282
Cc1cc(-n2c(=O)n(C)c3cnc4ccc(-c5ccc(N(C)C)nc5)cc4c32)n(C)n1 [Example 4.6]	0.03
CCn1cc(-n2c(=O)n(C)c3cnc4ccc(-c5cncc(C(C)(C)O)c5)cc4c32)c(C)n1 [Example 215.4]	0.02
Cc1nn(C)cc1-n1c(=O)n(C)c2cnc3ccc(-c4ccc(C(N)=O)cc4)cc3c21 [Example 41]	0.048

(1) Cc1nn(C)cc1-n1c(=O)n(C)c2cnc3ccc(-c4cccc(C(N)=O)c4)cc3c21 [Example 46]
(2) COc1ccc(-c2ccc3ncc4c(c3c2)n(-c2cn(CC(=O)N(C)C)nc2C)c(=O)n4C)cn1 [Example 102]
(3) Cc1nn(C)cc1-n1c(=O)n(C)c2cnc3ccc(-c4cncc(OC(C)C)c4)cc3c21 [Example 58.1]
Sort low-to-high on IC50, please. Write the labels out in the order the request specifies.
3, 2, 1
(3: 0.021 µM, 2: 0.033 µM, 1: 0.214 µM)

* * *

Biological target: PI3K beta (Homo sapiens)
Construct: for the full-length p110-b subunit are generated and fused by overlapping PCR; p85(iSH2) fusion partner (see partner chain) (N); His tag (C); Tn5 (Trichoplusia ni) or TiniPro insect cells
Test: PI3K beta kinase assay (Kinase-Glo luminescence)
pIC50: −log10 of the molar value.
VALUE TYPE: pIC50

Past entries and their recorded results:
COMPOUND	pIC50
COc1ncc(-c2ccc3ncc4c(c3c2)n(-c2cn(C)nc2Cl)c(=O)n4C)cn1 [Example 17.3]	7.43
CCn1cc(-n2c(=O)n(C)c3cnc4ccc(-c5cnc(N(C)C)nc5)cc4c32)c(C)n1 [Example 6.4]	6.31
Cc1nn(C)cc1-n1c(=O)n(C)c2cnc3ccc(-c4cccc(NS(C)(=O)=O)c4)cc3c21 [Example 47]	6.09
CNc1ncc(-c2ccc3ncc4c(c3c2)n(-c2cn(C(C)C)nc2C)c(=O)n4C)cc1C(F)(F)F [Example 144.2]	7.40
COc1ccc(-c2ccc3ncc4c(c3c2)n(-c2ccnn2C)c(=O)n4C)cc1OC [Example 1.3]	6.89
COc1ccc(-c2ccc3ncc4[nH]c(=O)n(-c5cc(C)nn5C)c4c3n2)cc1OC [Example 252]	7.62
CNC(=O)c1ccc(-c2ccc3ncc4c(c3c2)n(-c2cn(C(C)C)nc2C)c(=O)n4C)cn1 [Example 15.3]	6.28
Cc1ncc(-c2ccc3ncc4c(c3c2)n(-c2cn(C)nc2C)c(=O)n4C)cc1OC(C)C [Example 84.1]	8.10

(A) Cc1cncc(-c2ccc3ncc4c(c3c2)n(-c2cn(C)nc2C)c(=O)n4C)c1 [Example 24]
(B) CCNc1cc(-c2ccc3ncc4c(c3c2)n(-c2c(C)nn(CC(=O)N(C)C)c2C)c(=O)n4C)cnc1C [Example 87.5]
(C) CCOCc1ncc(-c2ccc3ncc4c(c3c2)n(-c2cn(C)nc2Cl)c(=O)n4C)cc1OC [Example 196.1]
Sort low-to-high on pIC50, please. Write the labels out in the order the request specifies.
B, C, A
(B: 6.47, C: 7.11, A: 7.59)

(A) [2H]C([2H])([2H])OCc1ncc(-c2ccc3ncc4c(c3c2)n(-c2cn(C)nc2C)c(=O)n4C)cc1OCC [Example 198]
(B) CCNc1ncc(-c2ccc3ncc4c(c3c2)n(-c2c(C)nn(C)c2C)c(=O)n4C)cc1COC [Example 206.2]
(C) CCOc1ccc(-c2ccc3ncc4c(c3c2)n(-c2cn(CC)nc2C)c(=O)n4C)cc1OC [Example 29.1]
Sort low-to-high on pIC50, please. Write the labels out in the order the request specifies.
B, C, A

* * *

Molecular target: PI3K beta (Homo sapiens, UniProt P42338)
Construct: for the full-length p110-b subunit are generated and fused by overlapping PCR; p85(iSH2) fusion partner (see partner chain) (N); His tag (C); made in house; host or cells: baculovirus; Tn5 (Trichoplusia ni) or TiniPro insect cells
Sequence (P42338 with tags, fused parts or gaps limits assumed): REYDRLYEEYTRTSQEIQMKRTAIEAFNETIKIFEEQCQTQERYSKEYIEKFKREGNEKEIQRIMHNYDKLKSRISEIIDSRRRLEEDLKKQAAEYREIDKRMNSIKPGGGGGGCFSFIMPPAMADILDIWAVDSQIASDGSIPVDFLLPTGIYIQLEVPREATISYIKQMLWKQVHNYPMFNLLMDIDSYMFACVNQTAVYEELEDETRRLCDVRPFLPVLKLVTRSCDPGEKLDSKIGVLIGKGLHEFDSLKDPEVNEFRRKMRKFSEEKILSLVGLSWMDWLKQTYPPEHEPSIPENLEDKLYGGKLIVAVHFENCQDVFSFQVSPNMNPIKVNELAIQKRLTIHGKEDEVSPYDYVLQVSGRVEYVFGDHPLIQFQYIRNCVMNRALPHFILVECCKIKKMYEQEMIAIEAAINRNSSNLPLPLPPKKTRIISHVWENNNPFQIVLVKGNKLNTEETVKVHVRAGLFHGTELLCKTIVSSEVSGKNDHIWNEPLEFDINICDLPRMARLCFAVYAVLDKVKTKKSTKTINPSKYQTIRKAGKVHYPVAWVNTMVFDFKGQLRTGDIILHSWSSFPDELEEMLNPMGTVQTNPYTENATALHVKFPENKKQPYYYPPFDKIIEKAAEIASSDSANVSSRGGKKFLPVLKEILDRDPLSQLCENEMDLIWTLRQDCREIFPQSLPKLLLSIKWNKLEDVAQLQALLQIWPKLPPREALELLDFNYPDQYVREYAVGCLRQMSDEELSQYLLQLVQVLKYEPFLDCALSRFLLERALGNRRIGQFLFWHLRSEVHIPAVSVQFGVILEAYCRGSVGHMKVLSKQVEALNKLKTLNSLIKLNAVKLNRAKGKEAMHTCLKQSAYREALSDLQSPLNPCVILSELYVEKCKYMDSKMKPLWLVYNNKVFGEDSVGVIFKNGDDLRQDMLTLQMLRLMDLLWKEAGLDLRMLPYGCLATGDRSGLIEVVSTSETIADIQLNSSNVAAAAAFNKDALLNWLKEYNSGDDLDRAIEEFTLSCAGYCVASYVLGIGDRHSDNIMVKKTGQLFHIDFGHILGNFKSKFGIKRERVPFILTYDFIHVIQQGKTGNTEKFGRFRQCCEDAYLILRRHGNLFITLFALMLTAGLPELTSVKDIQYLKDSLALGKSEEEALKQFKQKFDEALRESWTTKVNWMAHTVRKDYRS
Test: PI3K beta kinase assay (Kinase-Glo luminescence)
Type: biochemical
pIC50: −log10 of the molar value.
VALUE TYPE: pIC50

COMPOUND	OBSERVED
CN(C)c1ncc(-c2ccc3ncc4c(c3c2)n(-c2cn(C)nc2Cl)c(=O)n4C)cn1 [Example 6.3]	7.29

(A) Cc1nn(C)cc1-n1c(=O)n(C)c2cnc3ccc(-c4cccc(OC(C)C)c4)cc3c21 [Example 82]
(B) CCn1cc(-n2c(=O)n(C)c3cnc4ccc(-c5ccc(OC)nc5)cc4c32)c(C)n1 [Example 2.7]
(C) Cc1nn(C)cc1-n1c(=O)n(C)c2cnc3ccc(-c4cncc(C5(C#N)CCC5)c4)cc3c21 [Example 221.1]
Sort low-to-high on pIC50, please. Write the labels out in the order the request specifies.
A, B, C
